- Test system: M14
- Assay procedure: NCI tumour cell line growth inhibition, 48 h
Active and inactive are the calls of the source. Cut-off read from the data, not from the text of the source: active = GI50 up to about 1.1 µM and inactive = higher.
Log the outcome using a class from yes for active, no for inactive

COC(=O)Cn1cnc2c(Cl)nc(Nc3ccccc3)nc21 ... no
C[N+]1(c2ccccc2)C=C(c2ccccc2)SC1=S (centres undefined) ... no
O=C1C(=Cc2ccc(F)cc2)C(=O)c2ccccc21 ... no

Test call, this compound: C/C(=N\NS(=O)(=O)c1ccccc1)c1ccc[n+]([O-])n1 no

# outcome recorded in this test, key = C1=CC2(C=CC13O[C@H](C1CCCCC1)[C@@H](C1CCCCC1)O3)O[C@H](C1CCCCC1)[C@@H](C1CCCCC1)O2 no

Look up the recorded call for [N-]=[N+]=NC1C(O)C(CO)OC1n1ccc(N)nc1=O (centres undefined) in this test. no

Entry COc1ccc2c(c1)/C(=C\c1c(Cl)[nH]c3cc(C)c(OC)cc13)C(=O)N2 : call = ? yes

Which outcome was assigned to CCN(CC)C(=S)SS(=O)(=O)c1ccc(F)cc1 in this test? no

Just curious, what result did O=C1CCCc2c1c1c(n2Cc2ccccc2)-c2ccccc2C1=O get here? no

====

Below is a list of entries, each paired with its recorded GI50 value.
- Test system: MOLT-4
- Assay procedure: NCI tumour cell line growth inhibition, 48 h
The source made the active and inactive calls. Cut-off read from the data, not from the text of the source: active = GI50 up to about 1.1 µM and inactive = higher.

Recorded results for 3 molecules are shown here.
CCOC(=O)C1=C(C)Nc2ccccc2S1 ... 46.1 µM (inactive)
Cc1ccc(-c2cc(-c3ccc(Cl)cc3)nc(/N=C3\C(=O)N(CN(C)C)c4ccccc43)n2)cc1 ... 11.5 µM (inactive)
Cc1cn(S(=O)(=O)c2ccccc2)c2c(OCc3ccccc3)cc([N+](=O)[O-])cc12 ... > 100 µM (inactive)

Now consider the entry below.
Entry O=C1C[C@@H]2[C@@H](C=CC23CC3)N1O ; GI50 = > 100 µM (inactive)

====

# GI50 per record follows
- Test system: EKVX
- Assay procedure: NCI tumour cell line growth inhibition, 48 h
The source made the active and inactive calls. No stated cut-off is given here; in the data, active = GI50 up to about 1.1 µM and inactive = higher.

Solved cases below.
C=C(C)CCC1CCCCC(CN(C)C)C1=O (stereo unspecified) ... > 100 µM (inactive)
Cc1c(-c2cc(-c3ccccc3)n[nH]c2=O)c2ccccc2n1C ... > 100 µM (inactive)
COc1ccc(-c2cn3c(n2)sc2cc(C)ccc23)cc1 ... 4.73 µM (inactive)
COc1cc(/C=C2\C(=O)N(c3ccc(NC(C)=O)cc3)C(c3ccccc3)S2(=O)=O)cc(OC)c1OC (stereo unspecified) ... 91.4 µM (inactive)
CCOC(=O)C1=C(C)Nc2ccccc2S1 ... 14.3 µM (inactive)

The recorded GI50 for CCOP(=O)(/C=C\n1ccc(N)nc1=O)OCC is > 100 µM (inactive)

====

- Test system: SK-OV-3
- Assay procedure: NCI tumour cell line growth inhibition, 48 h
Calls of active or inactive are those of the source. No stated cut-off is given here; in the data, active = GI50 up to about 1.1 µM and inactive = higher.
Below is a list of entries, each paired with its recorded GI50 value.

Consider the reported GI50 for these compounds:
CSc1nnc(COc2ccc(Cl)cc2)o1 ... > 100 µM (inactive)
CSc1nc(SC)c2c(C#N)n[nH]c2n1 ... > 100 µM (inactive)
CCN(CCCl)c1ccc(NC(=O)c2cc(C(=O)NCCN(C)C)cc(C(=O)Nc3ccc(N(CC)CCCl)cc3)c2)cc1 ... 4.26 µM (inactive)
CN(C)CCNC(=O)Cn1cnc2cccc([N+](=O)[O-])c2c1=O ... > 100 µM (inactive)
COC(=O)[C@@H]1CCCCC[C@H]2C(CO)=C(C)C(=O)C12 (some centres not stated) ... > 100 µM (inactive)
CCn1c(=O)c2c3ccc(O)cc3oc2c2ccc(O)cc21 ... 38.5 µM (inactive)

Form: item O=C(NCCCCCCNC(=O)NC1OCC(O)C(O)C1O)NC1OCC(O)C(O)C1O (configuration not stated) ; test system SK-OV-3; GI50: > 100 µM (inactive)

SK-OV-3 assay, compound Cn1c2ccccc2c2c3c(c4c5ccccc5n(C)c4c21)C(=O)NC3=O , recorded GI50 = 5.35 µM (inactive)

Tested on SK-OV-3, the item CCOC(=O)/C=C(/CN1C(=O)c2ccccc2C1=O)c1ccccc1 showed GI50 equal to > 100 µM (inactive)

Summary line: CC(C)O/C=C1\C(=O)C2(SCCS2)[C@H]2CCCC[C@@H]12 , SK-OV-3, reported GI50 = 59.7 µM (inactive)

The measured GI50 that CC1CCC/C1=C(/I)C(=O)c1ccccc1 (configuration not stated) showed for SK-OV-3 is > 100 µM (inactive)

The compound O=c1[nH]nc(-c2ccccc2)n1/N=C/c1ccc([N+](=O)[O-])o1 , when measured on SK-OV-3, yielded GI50 of 9.29 µM (inactive)
